List of phosphorylation enrichment values.
- study target: EPHB1 (UniProt P54762)
- Sequence (P54762 whole entry, looked up): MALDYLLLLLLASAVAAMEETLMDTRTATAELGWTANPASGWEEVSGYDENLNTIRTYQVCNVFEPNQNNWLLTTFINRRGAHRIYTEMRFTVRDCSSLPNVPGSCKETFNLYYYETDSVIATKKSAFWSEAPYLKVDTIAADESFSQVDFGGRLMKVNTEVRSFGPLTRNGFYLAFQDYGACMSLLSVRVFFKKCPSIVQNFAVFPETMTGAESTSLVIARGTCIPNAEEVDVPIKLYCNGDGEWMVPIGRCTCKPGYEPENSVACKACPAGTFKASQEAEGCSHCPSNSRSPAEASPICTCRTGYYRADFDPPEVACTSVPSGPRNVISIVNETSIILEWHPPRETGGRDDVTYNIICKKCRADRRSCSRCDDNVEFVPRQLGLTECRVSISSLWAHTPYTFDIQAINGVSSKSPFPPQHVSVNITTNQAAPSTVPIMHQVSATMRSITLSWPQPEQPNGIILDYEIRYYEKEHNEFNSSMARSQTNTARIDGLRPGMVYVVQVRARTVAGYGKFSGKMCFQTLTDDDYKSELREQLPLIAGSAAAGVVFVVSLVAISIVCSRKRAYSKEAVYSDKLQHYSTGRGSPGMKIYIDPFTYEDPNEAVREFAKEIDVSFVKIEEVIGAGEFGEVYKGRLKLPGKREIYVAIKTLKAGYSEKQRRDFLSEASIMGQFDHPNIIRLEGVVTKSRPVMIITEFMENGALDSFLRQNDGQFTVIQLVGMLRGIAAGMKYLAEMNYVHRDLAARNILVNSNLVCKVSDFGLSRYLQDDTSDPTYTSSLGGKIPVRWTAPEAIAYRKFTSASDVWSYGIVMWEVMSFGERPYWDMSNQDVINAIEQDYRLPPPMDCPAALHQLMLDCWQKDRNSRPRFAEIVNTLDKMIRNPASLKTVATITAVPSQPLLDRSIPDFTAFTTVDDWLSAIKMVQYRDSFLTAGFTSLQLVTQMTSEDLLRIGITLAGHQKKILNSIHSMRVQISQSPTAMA
- assay overview: phosphorylation enrichment, bacterial display (enrichment ratio); higher = better substrate or ligand; peptides without Tyr show the background
# respond with the number and nothing more

RPFFLYVAFHD [SGSH_Y174]
0.731
ITKNPYDPPGR
0.457

Please turn your attention to the following entry.
Summary: TFFQMYDKGLV [IARS2_Y231_YF] , EPHB1 (UniProt P54762), phosphorylation enrichment = 0.531

====

- study target: EPHB1 (UniProt P54762)
- assay overview: phosphorylation enrichment, bacterial display (enrichment ratio); higher = better substrate or ligand; peptides without Tyr show the background
assay metric: phosphorylation enrichment
# respond with the number and nothing more

Some sequences with known phosphorylation enrichment results, for comparison:
WASQRYGRELR [BAD_Y110_A107S]
0.484
INSLKYAYNVS [EIF2B5_Y583_I587V]
0.402
ETDTRYFDEEF [AKT1_Y437]
0.633
ERLWDCGMSSS [F8_Y1728_Y1728C]
0.535
EVASVYQSYQP [MAVS_Y92]
0.54

GET /value?item= SSFSGYIMMPN [LEF1_Y114_YF] &field=phosphorylation enrichment returns 0.433

GET /value?item= IIGNGYFFRVF [MYBPC3_Y1135_YF] &field=phosphorylation enrichment returns 0.433

GET /value?item= GDDLSYGDVPP [IRS1_Y151_E147D] &field=phosphorylation enrichment returns 0.543

GET /value?item= YLENYYDLKKD [MMP3_Y42] &field=phosphorylation enrichment returns 6.01

GET /value?item= VEDDMYRKTCT [XPA_Y257_L252V] &field=phosphorylation enrichment returns 0.676

GET /value?item= AVRVFYRKCPR [EPHB2_Y194] &field=phosphorylation enrichment returns 0.345

GET /value?item= KQLGEYKFQNA [ALB_Y425_E420K] &field=phosphorylation enrichment returns 0.348

GET /value?item= AEEEIYGIFGA [SRCtide_2014] &field=phosphorylation enrichment returns 1.36

GET /value?item= MMVGAYSSLEG [ECPAS_Y470_T472S] &field=phosphorylation enrichment returns 0.469

GET /value?item= EWKQKYEESQS [MYH6_Y1462] &field=phosphorylation enrichment returns 0.525

GET /value?item= CFTGKYTLPPG [HSPB1_Y142_R140G] &field=phosphorylation enrichment returns 0.562

GET /value?item= PELINYQQHNS [BTK_Y361_H362Q] &field=phosphorylation enrichment returns 0.79

====

- study target: EPHB1 (UniProt P54762)
- assay overview: phosphorylation enrichment, bacterial display (enrichment ratio); higher = better substrate or ligand; peptides without Tyr show the background
assay metric: phosphorylation enrichment
# respond with the number and nothing more

QDDTVYMGKVI [DCTN1_Y1244_T1249I]
0.873

Summary: GVSFIYTIDGS [DCX_Y105_R102S_YF] , EPHB1 (UniProt P54762), phosphorylation enrichment = 0.694

Summary: TENAGYYFQVS , EPHB1 (UniProt P54762), phosphorylation enrichment = 0.78

Summary: DHFNQYEQQKM [CHD7_Y75_YF] , EPHB1 (UniProt P54762), phosphorylation enrichment = 0.457

Summary: IKELTYQMEED [MYH7_Y1852_T1854M] , EPHB1 (UniProt P54762), phosphorylation enrichment = 0.634

Summary: FRVAGYETQGG [TIA1_Y383_YF] , EPHB1 (UniProt P54762), phosphorylation enrichment = 0.428

Summary: QADVTYVNTQL [MERTK_Y872_I871T] , EPHB1 (UniProt P54762), phosphorylation enrichment = 0.717

Summary: MDFRSYPHEFG [RBM10_Y44_R46H_YF] , EPHB1 (UniProt P54762), phosphorylation enrichment = 0.434

Summary: VGSIEYLKREW [KCNMA1_Y885] , EPHB1 (UniProt P54762), phosphorylation enrichment = 0.35

Summary: LNAGAYSKVVQ [PPT1_Y172] , EPHB1 (UniProt P54762), phosphorylation enrichment = 0.703

Summary: TAALWYIYLHT [ENG_Y612_S615L] , EPHB1 (UniProt P54762), phosphorylation enrichment = 0.796

====

List of phosphorylation enrichment values.
- study target: MERTK (UniProt Q12866)
- Sequence (Q12866 whole entry, looked up): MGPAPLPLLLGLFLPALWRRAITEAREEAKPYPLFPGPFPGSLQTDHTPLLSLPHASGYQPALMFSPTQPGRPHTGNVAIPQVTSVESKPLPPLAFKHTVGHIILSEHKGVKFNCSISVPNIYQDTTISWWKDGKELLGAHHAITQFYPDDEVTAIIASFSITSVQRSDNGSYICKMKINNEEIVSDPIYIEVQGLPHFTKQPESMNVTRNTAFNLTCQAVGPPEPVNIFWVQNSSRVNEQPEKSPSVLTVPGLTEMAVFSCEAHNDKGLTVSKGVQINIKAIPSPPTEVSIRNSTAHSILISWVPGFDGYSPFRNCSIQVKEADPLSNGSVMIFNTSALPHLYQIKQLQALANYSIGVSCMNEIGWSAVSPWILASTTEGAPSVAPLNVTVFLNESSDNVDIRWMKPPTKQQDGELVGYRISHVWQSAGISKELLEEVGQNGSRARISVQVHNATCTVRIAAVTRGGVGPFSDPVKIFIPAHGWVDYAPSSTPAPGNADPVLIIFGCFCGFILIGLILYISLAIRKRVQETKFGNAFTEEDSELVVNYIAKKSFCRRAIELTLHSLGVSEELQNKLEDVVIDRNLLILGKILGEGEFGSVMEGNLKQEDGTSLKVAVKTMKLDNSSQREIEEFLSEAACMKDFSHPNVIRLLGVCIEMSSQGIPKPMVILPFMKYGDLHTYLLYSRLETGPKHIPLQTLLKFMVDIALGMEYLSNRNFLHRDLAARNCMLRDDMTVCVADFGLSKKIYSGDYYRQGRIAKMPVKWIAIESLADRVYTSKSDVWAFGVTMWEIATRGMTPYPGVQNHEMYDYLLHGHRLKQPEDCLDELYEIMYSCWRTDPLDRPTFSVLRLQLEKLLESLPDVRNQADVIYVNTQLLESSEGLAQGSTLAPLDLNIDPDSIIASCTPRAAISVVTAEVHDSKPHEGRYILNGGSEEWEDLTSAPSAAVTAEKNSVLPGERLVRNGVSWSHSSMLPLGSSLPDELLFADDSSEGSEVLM
- assay overview: phosphorylation enrichment, bacterial display (enrichment ratio); higher = better substrate or ligand; peptides without Tyr show the background
# respond with the number and nothing more

Some sequences with known phosphorylation enrichment results, for comparison:
RGFRVCFTPDS [PTPRF_Y450_Y450C_YF]
0.551
RGKDNYETSQL [SPP1_Y225_S224N]
0.689

GET /value?item= FSVDSYDSSVR [KCNQ1_Y461_G460S] &field=phosphorylation enrichment returns 0.406

GET /value?item= SFCFRYCCAAR [SUMF1_Y344_R345C_YF] &field=phosphorylation enrichment returns 0.445

GET /value?item= PFTRNYYVQAV [CYBA_Y87_R90Q] &field=phosphorylation enrichment returns 1.25

GET /value?item= NVTGHYISPFH [PPA2_Y59] &field=phosphorylation enrichment returns 0.563

GET /value?item= VAMDDYLKNVV [LRRK2_Y707_M712V] &field=phosphorylation enrichment returns 0.393

====

- study target: Grb2 SH2 (UniProt P62993)
- Sequence (P62993 whole entry, looked up): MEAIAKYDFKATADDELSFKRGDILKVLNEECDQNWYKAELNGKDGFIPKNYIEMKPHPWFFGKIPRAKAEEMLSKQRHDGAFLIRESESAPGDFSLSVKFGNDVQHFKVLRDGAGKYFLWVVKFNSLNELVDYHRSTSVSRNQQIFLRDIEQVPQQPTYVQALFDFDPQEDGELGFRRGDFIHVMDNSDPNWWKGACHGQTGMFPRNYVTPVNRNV
- assay overview: SH2 binding enrichment of the phosphorylated peptide, bacterial display (enrichment ratio); higher = better substrate or ligand; peptides without Tyr show the background
List of SH2 binding enrichment values.
# respond with the number and nothing more

RKLASYQSCLL [DHX37_Y1080_R1081Q]
0.784

GET /value?item= SLQFEYVHYGG [CDC14A_Y591_S589F] &field=SH2 binding enrichment returns 0.686

GET /value?item= VLALWYFFLTH [ZDHHC23_Y127_YF] &field=SH2 binding enrichment returns 1.28

GET /value?item= CSRHFYQLTKL [AR_Y858_R856H] &field=SH2 binding enrichment returns 1.04

GET /value?item= WNDLDYMDSRR [GAA_Y407] &field=SH2 binding enrichment returns 0.936

GET /value?item= TTTQAYRVNER [PRKN_Y391_D394N] &field=SH2 binding enrichment returns 0.848

GET /value?item= ALMGPYHGQVL [HADHA_Y343_L342P] &field=SH2 binding enrichment returns 0.77

GET /value?item= FSEVRYVKEPY [HIPK4_Y170] &field=SH2 binding enrichment returns 0.908

GET /value?item= EAGKVYLKAPM [CBFB_Y96] &field=SH2 binding enrichment returns 0.956

====

- study target: FGFR3 (UniProt P22607)
- Sequence (P22607 whole entry, looked up): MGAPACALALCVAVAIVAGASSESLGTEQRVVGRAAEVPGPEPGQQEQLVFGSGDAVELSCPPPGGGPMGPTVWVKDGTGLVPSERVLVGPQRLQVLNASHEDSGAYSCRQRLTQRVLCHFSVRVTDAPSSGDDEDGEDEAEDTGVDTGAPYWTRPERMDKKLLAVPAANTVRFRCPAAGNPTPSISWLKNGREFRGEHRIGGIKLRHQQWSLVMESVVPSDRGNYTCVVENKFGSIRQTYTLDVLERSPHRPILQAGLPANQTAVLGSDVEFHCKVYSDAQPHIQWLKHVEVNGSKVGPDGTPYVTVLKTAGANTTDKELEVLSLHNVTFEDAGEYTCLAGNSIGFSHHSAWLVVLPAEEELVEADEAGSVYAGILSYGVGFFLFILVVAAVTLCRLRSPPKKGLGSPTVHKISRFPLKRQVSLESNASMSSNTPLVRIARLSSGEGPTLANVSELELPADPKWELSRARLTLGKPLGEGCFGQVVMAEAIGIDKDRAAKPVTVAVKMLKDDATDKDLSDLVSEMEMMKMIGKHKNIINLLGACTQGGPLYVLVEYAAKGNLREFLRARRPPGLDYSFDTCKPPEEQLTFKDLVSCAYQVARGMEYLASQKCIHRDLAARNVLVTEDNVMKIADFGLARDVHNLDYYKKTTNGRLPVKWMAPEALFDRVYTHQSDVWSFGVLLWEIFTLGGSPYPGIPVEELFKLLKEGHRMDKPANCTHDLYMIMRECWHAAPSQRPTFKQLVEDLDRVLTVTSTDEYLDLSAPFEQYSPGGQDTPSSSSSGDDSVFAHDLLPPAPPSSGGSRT
- assay overview: phosphorylation enrichment, bacterial display (enrichment ratio); higher = better substrate or ligand; peptides without Tyr show the background
Classify as follows. Reported phosphorylation enrichment greater than or equal to 0.8: condition met. Reported phosphorylation enrichment below: condition not met.

Past entries and their recorded results:
MFNPCYGLFEF [NEDD4L_Y680_Y679C_YF]
condition not met
AALLNYKAGRD [GRIN2A_Y737_V734L]
condition not met
LEITWYPFDVE [RIPOR2_Y316]
condition met

Prompt: # check: phosphorylation enrichment of LTELGYSFVTT [ACTA1_Y200_R198L] is greater than or equal to 0.8
Completion: condition met

====

- study target: Fyn (UniProt P06241)
- Sequence (P06241 whole entry, looked up): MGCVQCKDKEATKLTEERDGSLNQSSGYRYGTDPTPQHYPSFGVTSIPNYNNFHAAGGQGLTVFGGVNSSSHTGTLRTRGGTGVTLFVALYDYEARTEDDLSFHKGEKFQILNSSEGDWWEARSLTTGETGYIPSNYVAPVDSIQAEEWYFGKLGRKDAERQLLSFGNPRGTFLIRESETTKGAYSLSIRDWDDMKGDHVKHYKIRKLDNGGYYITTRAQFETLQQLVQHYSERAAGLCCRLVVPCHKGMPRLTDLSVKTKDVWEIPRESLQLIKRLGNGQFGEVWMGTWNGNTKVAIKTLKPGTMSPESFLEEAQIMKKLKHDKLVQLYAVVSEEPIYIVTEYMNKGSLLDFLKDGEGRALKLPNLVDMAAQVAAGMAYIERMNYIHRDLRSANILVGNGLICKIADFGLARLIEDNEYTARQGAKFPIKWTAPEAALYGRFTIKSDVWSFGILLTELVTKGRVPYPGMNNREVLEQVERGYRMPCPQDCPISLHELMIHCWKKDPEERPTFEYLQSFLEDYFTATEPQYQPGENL
- assay overview: phosphorylation enrichment, bacterial display (enrichment ratio); higher = better substrate or ligand; peptides without Tyr show the background
List of phosphorylation enrichment values.

Some sequences with known phosphorylation enrichment results, for comparison:
KMTGRYEMYAR [UPB1_Y362]
0.476
NPQKSYFICLF [WAS_Y83_R86C_YF]
0.39
GRTNIYKNKKD [SLC26A3_Y520]
0.308
DKITQYVEEVR [STX2_Y49_K54R]
0.427

Summary: IFQASYFRRGD [LTK_Y676_R673Q_YF] , Fyn (UniProt P06241), phosphorylation enrichment = 0.499

Summary: RGRSTCFWPRP [GAGE12J_Y9_Y9C_YF] , Fyn (UniProt P06241), phosphorylation enrichment = 0.693

Summary: DGKYSYLKVGH [GRM3_Y480_G475D] , Fyn (UniProt P06241), phosphorylation enrichment = 0.372

Summary: RASSVFTRSTG [CCR5_Y339_Y339F] , Fyn (UniProt P06241), phosphorylation enrichment = 0.868

Summary: EHVMPYAANKN [GRIN2A_Y1431] , Fyn (UniProt P06241), phosphorylation enrichment = 0.313

Summary: KVQVSYKGDTK [HSPA1A_Y107_E110D] , Fyn (UniProt P06241), phosphorylation enrichment = 0.372

Summary: IQVNAYFSPIH [ADSL_Y432_D430N] , Fyn (UniProt P06241), phosphorylation enrichment = 0.431

Summary: VSLEAYCKHKF [RXRA_Y403_A398V_YF] , Fyn (UniProt P06241), phosphorylation enrichment = 0.399

Summary: MTRDIYRASFF [ALK_Y1278_A1274T_YF] , Fyn (UniProt P06241), phosphorylation enrichment = 0.587
